Measured On: ZFP SBS#931 (synthetic)
Sequence (chain, as listed by the source): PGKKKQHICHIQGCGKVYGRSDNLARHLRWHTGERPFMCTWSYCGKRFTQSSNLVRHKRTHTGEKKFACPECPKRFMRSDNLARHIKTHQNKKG
Measurement Description: EMSA
Measurement Context: tags: MBP fusion
pKd: −log10 of the molar value.
Quantity Kind: pKd

binder="GAGGAAGAG (dsDNA) DNA 1: GAGGAAGAG DNA 2: CTCTTCCTC" val=8.70
